List of Ki values.
tgt: human muscarinic receptors (M3) (Homo sapiens, UniProt P20309)
Construct: purchased
Sequence (P20309 whole entry): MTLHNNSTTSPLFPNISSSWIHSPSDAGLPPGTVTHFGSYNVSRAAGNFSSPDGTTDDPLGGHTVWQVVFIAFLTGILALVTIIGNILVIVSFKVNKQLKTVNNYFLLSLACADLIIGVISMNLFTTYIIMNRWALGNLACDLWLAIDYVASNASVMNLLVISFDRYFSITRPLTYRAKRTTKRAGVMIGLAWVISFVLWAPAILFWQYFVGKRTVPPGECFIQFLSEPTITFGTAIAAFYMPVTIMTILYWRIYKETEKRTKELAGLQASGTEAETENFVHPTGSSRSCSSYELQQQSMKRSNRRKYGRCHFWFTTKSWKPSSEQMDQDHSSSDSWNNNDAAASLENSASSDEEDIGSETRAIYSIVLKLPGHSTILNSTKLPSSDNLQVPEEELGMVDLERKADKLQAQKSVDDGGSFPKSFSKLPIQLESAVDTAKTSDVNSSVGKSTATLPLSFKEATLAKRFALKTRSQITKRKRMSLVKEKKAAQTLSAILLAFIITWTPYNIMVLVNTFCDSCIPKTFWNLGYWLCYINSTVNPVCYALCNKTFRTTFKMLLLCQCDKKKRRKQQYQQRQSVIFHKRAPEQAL
assayInfo: Muscarinic receptor radioligand binding assay, [3H]-NMS, filter plate format
details: filter plate format; read-out: M3 Ki (Filter plate format)
Counter-ions that a name gives are not always drawn.

{"molecule": "OC(c1ccccc1)(c1ccccc1)c1ncc(C[N+]23CCC(CC2)C(Oc2ccccc2)C3)o1 (single isomer, unassigned; enantiomer 2) [Example 2]", "Ki": "< 5 nM"}
{"molecule": "OC(c1ccccc1)(c1ccccc1)c1ncc(C[N+]23CCC(CC2)C(Oc2ccccc2)C3)o1 (single isomer, unassigned; enantiomer 1) [Example 1]", "Ki": "> 20 nM"}
{"molecule": "OC(c1ccccc1)(c1ncc(C[N+]23CCC(CC2)C(Oc2ccccc2)C3)o1)C1CCCCC1 (single isomer, unassigned; enantiomer 1) [Example 3]", "Ki": "5 to 20 nM"}
{"molecule": "O[C@](c1ccccc1)(c1ncc(C[N+]23CCC(c4ccccc4)(CC2)CC3)o1)C1CCCCC1 [Example 11, formate]", "Ki": "> 20 nM"}

Query molecule follows.
get_value(item= OC(c1ccccc1)(c1ncc(C[N+]23CCC(CC2)C(Oc2ccccc2)C3)o1)C1CCCCC1 (single isomer, unassigned; enantiomer 2) [Example 4] , readout=Ki) returns < 5 nM

* * *

tgt: Recombinant human M3 receptor (Homo sapiens, UniProt P20309)
Construct: expressed in transfected cells; host or cells: CHO-K1 cells (membranes)
Sequence (P20309 whole entry): as above
assayInfo: biochemical
Assay type: binding
details: M3, SPA format assay; read-out: Ki in the SPA format assay
Counter-ions that a name gives are not always drawn.
// reported Ki per item
Quick reminder: number only, in nM, skip the unit.

The examples below pair each entry with its known result.
{"compound": "OC(c1ccccc1)(c1ccccc1)c1noc(C[N+]23CCC(CC2)[C@@H](Oc2ccc(F)cc2)C3)n1", "reportedMeasurement": 0.17}
{"compound": "O[C@](c1ccccc1)(c1ncc(C[N+]23CCC(CC2)[C@@H](Oc2ccc(F)cc2)C3)o1)C1CCCCC1", "reportedMeasurement": 0.09}
{"compound": "O[C@](c1ccccc1)(c1ncc(C[N+]23CCC(CC2)[C@@H](OCc2ccccc2)C3)o1)C1CCCC1 [Example 42, formate]", "reportedMeasurement": 0.09}
{"compound": "O[C@](c1ccccc1)(c1ncc(C[N+]23CCC(CC2)[C@@H](COc2ccccc2)C3)o1)C1CCCCC1", "reportedMeasurement": 0.13}

Next compound, Ki to be filled in.
Tested system Recombinant human M3 receptor (Homo sapiens, UniProt P20309); Ki recorded for OC(c1ccccc1)(c1cc(C[N+]23CCC(CC2)[C@@H](Sc2ccccc2)C3)on1)C1CCCCC1 (single isomer, unassigned) was 0.65

* * *

tgt: human muscarinic receptors (M3) (Homo sapiens)
Construct: purchased
assayInfo: Muscarinic receptor radioligand binding assay, [3H]-NMS, filter plate format
details: M3 Ki (Filter plate format), filter plate format
Counter-ions that a name gives are not always drawn.
assayEndpoint: Ki

Known value: human muscarinic receptors (M3) (Homo sapiens) Ki of the molecule O=C(O[C@@H]1C[N+]2(Cc3cnc([C@](O)(c4ccccc4)C4CCCCC4)o3)CCC1CC2)c1ccccc1 [Example 10, formate] equals 5 to 20 nM

* * *

tgt: Recombinant human M3 receptor (Homo sapiens, UniProt P20309)
Construct: expressed in transfected cells; host or cells: CHO-K1 cells (membranes)
assayInfo: biochemical
Assay type: binding
details: SPA format; read-out: M3 Ki (SPA format)
pKi: −log10 of the molar value. Structures can show the parent of a compound that is named as a salt.
assayEndpoint: pKi

Previously resolved entries follow.
{"compound": "OC(c1ccccc1)(c1noc(C[N+]23CCC(CC2)C(CSc2cccc(F)c2)C3)n1)C1CCCCC1 (single isomer, unassigned)", "pKi": "> 8.30"}
{"compound": "OC(c1ccccc1)(c1ccccc1)c1noc(C[N+]23CCC(CC2)[C@@H](OCc2ccc(F)cc2)C3)n1", "pKi": "> 8.30"}

Assay Recombinant human M3 receptor (Homo sapiens, UniProt P20309), sample O[C@](c1ccccc1)(c1ncc(C[N+]23CCC(CC2)[C@@H](OCc2ccc(Cl)cc2)C3)o1)C1CCCC1 [Example 44, formate] , pKi read: > 8.30
